# System: S. aureus RN4220
# experimental-details: growth inhibition call (relative growth <= 0.2)
# reported-conditions: 50 µM
The whole screen tested about 39,000 compounds, of which about 500 (1.3%) were called active. This is one part of a sample in which actives are shown more often than they occur.
Respond with a class label; see T = active, F = inactive

CON=C(C(=O)N[C@@H]1C(=O)N2C(C(=O)O)=C(CSc3nc(=O)c(O)nn3C)CS[C@H]12)c1csc(N)n1 ... T
C[C@@H]1CN([C@H](C)CO)C(=O)Cc2cc(NC(=O)CCN3CCOCC3)ccc2O[C@@H]1CN(C)S(=O)(=O)c1ccc(F)cc1 ... F

In: Test call for this compound, please: COc1ccc(S(=O)(=O)N(C)C[C@@H]2Oc3ccc(NC(=O)Nc4cccc5ccccc45)cc3C(=O)N([C@@H](C)CO)C[C@@H]2C)cc1
Out: F

In: Test call for this compound, please: C[C@@H]1CN([C@H](C)CO)C(=O)c2cc(NC(=O)CCCN(C)C)ccc2O[C@H]1CN(C)S(=O)(=O)c1cccs1
Out: F

In: Test call for this compound, please: COC(=O)OCOc1c2n(ccc1=O)N([C@@H]1c3ccccc3SCc3c1ccc(F)c3F)[C@@H]1COCCN1C2=O
Out: F

In: Test call for this compound, please: CO/N=C(\C(=O)N[C@@H]1C(=O)N2C(C(=O)O)=C(CSc3nnnn3C)CS[C@H]12)c1csc(N)n1
Out: F

In: Test call for this compound, please: C[C@@H]1CN([C@H](C)CO)C(=O)c2cccc(NS(=O)(=O)c3ccccc3)c2O[C@@H]1CN(C)Cc1ccncc1
Out: F

---

# System: S. aureus RN4220
# experimental-details: growth inhibition call (relative growth <= 0.2)
# reported-conditions: 50 µM
The whole screen tested about 39,000 compounds, of which about 500 (1.3%) were called active. Shown is part of a subset that was picked to be rich in actives.
observation-type: growth inhibition call

Cc1noc(C)c1S(=O)(=O)Nc1ccc2c(c1)C(=O)N([C@@H](C)CO)C[C@@H](C)[C@@H](CN(C)S(C)(=O)=O)OCCCC[C@@H](C)O2 ... inactive
COc1ccc(NC(=O)N(C)C[C@H]2Oc3ccc(NC(=O)C4CC4)cc3C(=O)N([C@@H](C)CO)C[C@@H]2C)cc1 ... inactive
C[C@@H]1CCCCO[C@@H](CN(C)C(=O)C2CCCCC2)[C@@H](C)CN([C@@H](C)CO)C(=O)c2cc(NC(=O)Nc3ccc(C(F)(F)F)cc3)ccc2O1 ... inactive

---

# System: S. aureus RN4220
# experimental-details: growth inhibition call (relative growth <= 0.2)
# reported-conditions: 50 µM
Among all 39,000 compounds or so, about 500 (1.3%) were called active. The full list was thinned out, with actives kept by preference.
Respond with a class label; see active, inactive

CNC[C@@H]1Oc2ccc(NS(=O)(=O)c3cn(C)cn3)cc2C(=O)N([C@@H](C)CO)C[C@@H]1C ... inactive

In: Test call for this compound, please: CCC(=C(c1ccccc1)c1ccc(OCCN(C)C)cc1)c1ccccc1.O=C(O)CC(O)(CC(=O)O)C(=O)O
Out: active

In: Test call for this compound, please: CN(c1ncccc1CNc1nc(Nc2ccc3c(c2)CC(=O)N3)ncc1C(F)(F)F)S(C)(=O)=O
Out: inactive

In: Test call for this compound, please: CN(C)CCN(Cc1ccccc1)c1ccccn1.O=C(O)CC(O)(CC(=O)O)C(=O)O
Out: inactive

Cited source for all entries: the antibiotic and cytotoxicity screens of Wong et al. (2023)
